Where these numbers come from: the Human Domainome abundance scans (Beltran et al. 2025)

Quick reference for abundance fitness among some variants
B1: Gamma-crystallin C, residues 91 to 170; numbered along this chain, P07315 (parent)
chain: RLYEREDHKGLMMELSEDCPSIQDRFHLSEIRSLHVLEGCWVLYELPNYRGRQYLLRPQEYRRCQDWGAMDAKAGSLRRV

Variants of: B1
Assay: abundance fitness (aPCA) (normalised: wild type 0, dead -1); higher = more abundant; growth selection in yeast, the domain comes from the species named
Details: Homo sapiens

Variant code	Result
Q53K	-0.19

Exam item: Form field: reported abundance fitness of C19R
Marked response: -0.886

Exam item: Please report the recorded abundance fitness for R57K .
Marked response: -0.148

Exam item: Can you share its abundance fitness? I mean this variant: R32A
Marked response: -0.302

Exam item: Suppose we examine the variant S33G ; what abundance fitness value has been reported?
Marked response: -0.872

Exam item: I'd like to know its abundance fitness. The variant in question is Q65A
Marked response: -0.075

Exam item: Recorded abundance fitness for G68S , please?
Marked response: -0.44

Exam item: # input variant: R52E ; wanted: its abundance fitness
Marked response: -0.28

Exam item: Data request, read-out abundance fitness, for R62M
Marked response: 0.195

Exam item: Recorded abundance fitness of L46A , please.
Marked response: 0.023

Exam item: What measured abundance fitness goes with E38K ?
Marked response: -0.083

Exam item: Please report the recorded abundance fitness for E60Y .
Marked response: -0.069

Exam item: Could you share which abundance fitness value was measured for H35Y ?
Marked response: -0.202
